normalized growth by entry:
# Experiment Summary: chemical genetic growth profiling, strain panel (AID 1159580);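 note: tested at 20 µM; growth read once vehicle control cultures reached saturation at 30 °C; 1 = growth at the plate median or of vehicle wells; lower values mean less growth of the strain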
# Conditions: S. cerevisiae deletion strains, growth OD, locus YNL006W, strain LST8, hits give low values
Screen size: about 5,500 compounds; about 2,000 (36%) were called active. About 18% were inconclusive and are not listed. Some of the results follow.

{"columns": ["Chemical Structure", "normalized growth"],
 "data": [
  ["CSc1nc(Sc2n[nH]c(-c3ccccc3)n2)cc(Sc2n[nH]c(-c3ccccc3)n2)n1", 1],
  ["O=S(=O)(Nc1cc(-c2cccs2)nn1-c1ccc(I)cc1)c1cccc(F)c1", 0.964],
  ["Nc1ccccc1C(=O)N/N=C\\c1cc(Cl)cc(Cl)c1O", 0.967]
]}

====

# Experiment Summary: chemical genetic growth profiling, strain panel (AID 1159580)
# Conditions: S. cerevisiae deletion strains, growth OD, locus YMR078C, strain ctf18, hits give low values
In all, about 5,500 compounds went through this assay and about 2,000 (36%) were called active. Inconclusive results (about 18%) are left out. The list shows a part of the results.
Note to self: normalized growth under 1 means label 1, ties and anything higher get label 0.

{"columns": ["Compound", "Label"],
 "data": [
  ["COc1cc(O)c(C)c(O)c1", "label 0"],
  ["Cc1cccc(N(C)C(=S)Oc2ccc3ccccc3c2)c1", "label 1"],
  ["C[N+]1(C)C2CC[C@H]1CC(OC(=O)C(O)c1ccccc1)C2 (some centres not stated)", "label 0"]
]}

====

# Experiment Summary: chemical genetic growth profiling, strain panel (AID 1159580)
# Conditions: S. cerevisiae deletion strains, growth OD, locus YAL013W, strain DEP1
The campaign covered roughly 5,500 compounds. About 2,000 (36%) were called active. Roughly 18% stayed inconclusive and do not appear here. Cut-off read from the data, not from the text of the source: active = normalized growth mostly below about 0.91 (no sharp cut-off); inconclusive = no clear call, values can overlap the other calls; inactive = mostly above about 0.92. The list shows a part of the results.
Possible outcomes: t (active), f (inactive)

{"columns": ["Molecule", "Label"],
 "data": [
  ["NCCNC(=O)c1ncsc1-c1cccc(F)c1", "f"],
  ["CC(C)=CCc1c(O)cc2occ(-c3ccc4c(c3)OCO4)c(=O)c2c1O", "f"],
  ["CCC(=O)Oc1ccc(NC(=S)NCCCO)cc1", "f"],
  ["O=C(O)C12CC3CC(CC(Br)(C3)C1)C2", "f"],
  ["COc1ccc2c(c1)[nH]c1c(C)nccc12", "f"],
  ["CCCCC/C=C\\C/C=C\\C/C=C\\C/C=C\\CCCC(=O)O", "f"],
  ["CC1=CC(C)(C)NC(=S)N1", "f"],
  ["C[C@]12CC[C@@H](O)CC1CC[C@@H]1[C@@H]2CC[C@]2(C)C(=O)CC[C@@H]12 (stereo partly drawn)", "t"],
  ["CC(O)CNc1ccc(C(F)(F)F)cc1[N+](=O)[O-] (stereo not drawn)", "f"],
  ["O=S(=O)(c1ccc(Cl)c(Cl)c1)N1CCN(c2ccc(C(F)(F)F)cn2)CC1", "f"],
  ["CCCCCN=C(N)N/N=C\\c1c[nH]c2ccc(OC)cc12", "f"],
  ["O=c1c(-c2ccc3c(c2)OCO3)coc2cc(O)ccc12", "f"],
  ["CC1(C)C=Cc2c(cc3occ(-c4ccc5c(c4)OCO5)c(=O)c3c2O)O1", "f"],
  ["COc1cc(OC)cc(OC)c1", "f"],
  ["COC(=O)C[C@H]1C(C)(C)[C@@H](OC(C)=O)[C@@H]2CC3C4CC(=O)O[C@@H](c5ccoc5)[C@]4(C)CCC3[C@@]1(C)C2=O (stereo partly drawn)", "f"],
  ["C=CCN1CC[C@]23CCCCC2[C@H]1Cc1ccc(O)cc13 (stereo partly drawn)", "f"],
  ["O=[N+]([O-])c1ccc(C2N(Cc3ccccc3)CCC3CCCCN32)cc1 (stereo not drawn)", "f"],
  ["O=[N+]([O-])c1cc(C(F)(F)F)ccc1NCCCn1ccnc1", "f"],
  ["COc1cc(O)c(C)c(O)c1", "f"],
  ["S=C(NCc1ccco1)Nc1ccc(Oc2ccc(Cl)cc2)cc1", "f"],
  ["CCCC(=O)Nc1ncnc2c1ncn2C1O[C@@H]2COP(=O)(O)O[C@H]2[C@H]1OC(=O)CCC (stereo partly drawn)", "f"],
  ["COc1cc(O)c(C(C)=O)c(OC)c1", "f"],
  ["COC(=O)c1csc2c(C(F)(F)F)cc(N3CCN(S(=O)(=O)c4ccc(C)cc4)CC3)nc12", "f"]
]}

====

# Experiment Summary: chemical genetic growth profiling, strain panel (AID 1159580);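 note: tested at 20 µM; growth read once vehicle control cultures reached saturation at 30 °C; 1 = growth at the plate median or of vehicle wells; lower values mean less growth of the strain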
# Conditions: S. cerevisiae deletion strains, growth OD, locus YLR357W, strain rsc2, hits give low values
Hit rate of the full screen: of about 5,500 compounds, about 2,000 (36%) were called active. Inconclusive results (about 18%) are left out. The list shows a part of the results.
Measured Property: normalized growth

{"columns": ["Compound", "Recorded Measurement"],
 "data": [
  ["FC(F)(F)COCC(F)(F)F", "1.01 (inactive)"],
  ["C[C@]12CCC3C(CC[C@H]4C[C@@H](O)CC[C@]34C)C1CCC2=O (stereo partly specified)", "1.16 [resistant] (active)"],
  ["OC[C@@H](O)C(O[C@@H]1O[C@H](CO)[C@H](O)[C@H](O)[C@H]1O)[C@H](O)[C@@H](O)CO (stereo partly specified)", "0.959 (inactive)"],
  ["Cc1cccc(N(C)C(=S)Oc2ccc3ccccc3c2)c1", "0.999 (inactive)"],
  ["O=C1c2ccccc2-c2cccc3cccc1c23", "0.985 (inactive)"],
  ["O=C(O)CCCN1C(=O)c2cccc3cccc(c23)C1=O", "1.04 (inactive)"]
]}

====

# Experiment Summary: chemical genetic growth profiling, strain panel (AID 1159580);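 note: tested at 20 µM; growth read once vehicle control cultures reached saturation at 30 °C; 1 = growth at the plate median or of vehicle wells; lower values mean less growth of the strain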
# Conditions: S. cerevisiae deletion strains, growth OD, locus YIL066C, strain RNR3, hits give low values
Screen size: about 5,500 compounds; about 2,000 (36%) were called active. Inconclusive results (about 18%) are left out. Some of the results follow.
normalized growth by entry:

{"columns": ["Compound", "normalized growth"],
 "data": [
  ["Fc1ccc(C(c2ccc(F)cc2)N2CCN(C/C=C/c3ccccc3)CC2)cc1", 0.965],
  ["CSCCC(NC=O)C(=O)NC(CC(C)C)C(=O)NC(Cc1ccccc1)C(=O)O (stereo unspecified)", 0.996],
  ["CC(=O)N[C@@H](CC(=O)O)C(=O)O", 1.02],
  ["CC1(C)S[C@@H]2[C@H](NC(=O)COc3ccccc3)C(=O)N2[C@H]1C(=O)O", 1.01],
  ["C[N+]1(C)C2CC[C@H]1CC(OC(=O)C(O)c1ccccc1)C2 (stereo partly specified)", 0.999],
  ["C[C@]12C=CC(=O)C=C1CCC1C2CC[C@]2(C)C(=O)CCC12 (stereo partly specified)", 1.01],
  ["CN1CCN(C(c2ccccc2)c2ccccc2)CC1", 1],
  ["COc1ccc(Cc2nccc3cc(OC)c(OC)cc23)cc1OC", 1.01],
  ["CCOc1ccc(Cc2nccc3cc(OCC)c(OCC)cc23)cc1OCC", 0.935],
  ["CC(C(=O)O)c1ccc(N2Cc3ccccc3C2=O)cc1 (stereo unspecified)", 1.02],
  ["CCN(CC)CCNC(=O)COc1ccc(OC)cc1", 0.999]
]}

====

# Experiment Summary: chemical genetic growth profiling, strain panel (AID 1159580);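 note: tested at 20 µM; growth read once vehicle control cultures reached saturation at 30 °C; 1 = growth at the plate median or of vehicle wells; lower values mean less growth of the strain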
# Conditions: S. cerevisiae deletion strains, growth OD, locus YMR078C, strain ctf18, hits give low values
Hit rate of the full screen: of about 5,500 compounds, about 2,000 (36%) were called active. Another 18% or so got no clear call; they are omitted. The list shows a part of the results.
normalized growth by entry:
Measured Property: normalized growth

{"columns": ["Compound", "Recorded Measurement"],
 "data": [
  ["O=c1n(CCCN2CCN(c3cccc(Cl)c3)CC2)nc2ccccn12", 0.995],
  ["CCCCC/C=C\\C/C=C\\C/C=C\\C/C=C\\CCCC(=O)O", 0.964],
  ["COC(=O)C[C@H]1C(C)(C)C(OC(C)=O)[C@]2(O)C=C3C4CC(=O)O[C@@H](c5ccoc5)[C@]4(C)CCC3[C@@]1(C)C2=O (stereo not given in full)", 1.01],
  ["O=C(CCCN1CC=C(n2c(=O)[nH]c3ccccc32)CC1)c1ccc(F)cc1", 0.979],
  ["N#Cc1ccc2c(c1)N(CCCN1CCC(O)CC1)c1ccccc1S2", 1.02],
  ["C[C@]12C=CC(=O)C=C1CCC1C2C(=O)C[C@@]2(C)C1CC[C@]2(O)C(=O)CO (stereo not given in full)", 0.979],
  ["N#C/C(=C\\c1ccc(O)cc1)C(=O)O", 0.998],
  ["CCCC(=O)Nc1ncnc2c1ncn2C1O[C@@H]2COP(=O)(O)O[C@H]2[C@H]1OC(=O)CCC (stereo not given in full)", 1.03],
  ["C[C@]12CCC3C(CC[C@H]4CC(=O)CC[C@]34C)C1CCC2=O (stereo not given in full)", 0.966],
  ["COc1ccc2c(=O)c(CC(=O)O)coc2c1", 0.992]
]}
